ASSAY_SYSTEM: GST-FKH-FoxA2 (Rattus norvegicus (rat; cloned from genomic DNA))
Sequence (P32182 145-290, looked up): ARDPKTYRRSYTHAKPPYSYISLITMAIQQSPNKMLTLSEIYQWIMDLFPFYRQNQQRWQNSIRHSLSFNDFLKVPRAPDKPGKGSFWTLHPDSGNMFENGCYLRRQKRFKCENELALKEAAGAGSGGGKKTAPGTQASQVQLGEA
MEASUREMENT_DESCRIPTION: competition EMSA
REPORTED_CONDITIONS: 25 mM HEPES pH 7.6, 150 mM KCl, 0.2 mM EDTA, 0.2 mM EGTA, 10% glycerol, 1 mM DTT, 3 ug protein, 1 ng 32P-TTR probe, 2/5/20 ng competitor, on ice 15 min; 4% …
// assign 1 if binding signal (EMSA score (TTR=1)) falls strictly below 0.4, else 0 (ties count as 0)

Previously resolved entries follow.
CAGTCTCCCGGCCGGGGTTGACTCTCTCTGAGCT (double strand) [non-site chr8:87127281]; 1
CAGTTGGGCATATTTGCTCAGAACCTGGTA (double strand) [FoxA BS chr1:159362347]; 1
CAGTCACCGTTGTTTGTTCTGTGACAAATA (double strand) [FoxA BS chr19:56926814]; 0
CAGTCCCGGGCCTGTTTGCTTTTCCATACA (double strand) [FoxA BS chr12:8003233]; 0
CAGTACCCCAGGATTTGTGGGCTGTGGGTGTGGC (double strand) [non-site chr7:44970992]; 1

Enquiry: Determine whether this sequence shows binding signal (EMSA score (TTR=1)) lower than 0.4 (ties excluded): CAGTCGTCTTCCCTGTGTGCTTACTATGCA (double strand) [non-site chr12:85340663 b]
Return: 1

Enquiry: # repeat for CAGTAAACTCTGCTGTGTGTACAGATAACATTAC (double strand) [non-site chr7:119551431]
Return: 1

Enquiry: # repeat for CAGTGGACCTTATTTACTTTCCTTAGCAAG (double strand) [FoxA BS chr12:85340663 a]
Return: 0

Enquiry: # repeat for CAGTCATATAGGCTCTGTTTGAACATTAATTAAC (double strand) [FoxA BS chr15:82621996 b]
Return: 1

* * *

ASSAY_SYSTEM: GST-FKH-FoxA2 (Rattus norvegicus (rat; cloned from genomic DNA))
Sequence (P32182 145-290, looked up): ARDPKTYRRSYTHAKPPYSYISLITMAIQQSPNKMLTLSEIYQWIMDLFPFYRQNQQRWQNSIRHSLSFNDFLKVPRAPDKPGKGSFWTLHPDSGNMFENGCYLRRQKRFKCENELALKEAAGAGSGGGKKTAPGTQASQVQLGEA
MEASUREMENT_DESCRIPTION: competition EMSA
REPORTED_CONDITIONS: 25 mM HEPES pH 7.6, 150 mM KCl, 0.2 mM EDTA, 0.2 mM EGTA, 10% glycerol, 1 mM DTT, 3 ug protein, 1 ng 32P-TTR probe, 2/5/20 ng competitor, on ice 15 min; 4% …
QUANTITY_KIND: binding signal (EMSA score (TTR=1))
A bare number is all that is needed in reply.

CAGTTTCAAAGCTTGTTGACGGAGAGAAAT (double strand) [non-site chr17:25500984]; 0.2
CAGTACTAGATGTTTACTTTAAGGGACCAG (double strand) [FoxA BS chr9:107745824]; 1.3
CAGTTGGAGTAGTTATTTACCTTAGCAGCC (double strand) [FoxA BS chr16:13816438]; 0.81
CAGTGGATGCCTCTATTTGTTTAATCACAG (double strand) [FoxA BS chr9:122199103]; 1.1
CAGTTATCTGTACTTTATTTTCAAACGCTATAAT (double strand) [non-site chr8:96902217 b]; -0.01
CAGTAGGGTCAAGGTAGTTTGCATATCTTCCAAC (double strand) [non-site chr7:83767529]; 0.24

Enquiry: May I ask what binding signal (EMSA score (TTR=1)) has been recorded for CAGTGTTCAGAGCTGTTTACTTGAACGCGA (double strand) [FoxA BS chr6:34792983 b] ?
Return: 0.53

Enquiry: # repeat for CAGTAAGGTTATTATTATTTGTTTTATTTTGTTT (double strand) [FoxA BS chr10:75378448]
Return: 0.83

Enquiry: # repeat for CAGTAGCCCCTCCTGTGTTGTCTTCCAGTAGATG (double strand) [non-site chr7:59095749]
Return: 0.09

Enquiry: # repeat for CAGTATTGGACATTGTTTATTTGTTTTGCC (double strand) [FoxA BS chr1:141375708]
Return: 1.21

* * *

ASSAY_SYSTEM: GST-FKH-FoxA2 (Rattus norvegicus (rat; cloned from genomic DNA))
Sequence (P32182 145-290, looked up): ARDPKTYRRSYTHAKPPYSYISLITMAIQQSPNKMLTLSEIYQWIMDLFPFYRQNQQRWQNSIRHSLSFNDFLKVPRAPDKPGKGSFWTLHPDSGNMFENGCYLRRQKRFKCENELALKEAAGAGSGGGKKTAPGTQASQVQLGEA
MEASUREMENT_DESCRIPTION: competition EMSA
REPORTED_CONDITIONS: 25 mM HEPES pH 7.6, 150 mM KCl, 0.2 mM EDTA, 0.2 mM EGTA, 10% glycerol, 1 mM DTT, 3 ug protein, 1 ng 32P-TTR probe, 2/5/20 ng competitor, on ice 15 min; 4% …
QUANTITY_KIND: binding signal (EMSA score (TTR=1))
A bare number is all that is needed in reply.

Check out these entries, answers already filled in.
CAGTGTTGCCCGTCGTATTTGTATATGGTTTCCT (double strand) [FoxA BS chr10:79387812]; 0.58
CAGTCCGGGATTGGCTGTTTGTAATCTGCTCGAC (double strand) [non-site chr17:74394072]; 0
CAGTCGTGACCTTTGTTGACTCGCGTCAGT (double strand) [FoxA BS chrX:17319260]; 0.53
CAGTTGGCCCCAGTATTTACATTTCTAACA (double strand) [FoxA BS chr15:54962925]; 0.92
CAGTTGCCTTTCTGTTTGTTGTTTTGGAGG (double strand) [non-site chr5:30822343]; 0.21
CAGTGGGACCTGTCTTGTTGACCCATCACGTCAC (double strand) [FoxA BS chr17:32151628]; 0.47
CAGTGCGGCGCTGTGTTTACCTTCCGGGAG (double strand) [FoxA BS chr11:85168610]; 1.08
CAGTCCTGGCTTTCCTGCTTACCCAACAACCGCT (double strand) [non-site chr3:94456673 b]; 0.07

For the next question, use this sequence.
Enquiry: May I ask what binding signal (EMSA score (TTR=1)) has been recorded for CAGTGAGGCGGGGTGTTGACTCTTACGCCA (double strand) [FoxA BS chr8:112454327] ?
Return: 0.33

* * *

ASSAY_SYSTEM: GST-FKH-FoxA2 (Rattus norvegicus (rat; cloned from genomic DNA))
Sequence (P32182 145-290, looked up): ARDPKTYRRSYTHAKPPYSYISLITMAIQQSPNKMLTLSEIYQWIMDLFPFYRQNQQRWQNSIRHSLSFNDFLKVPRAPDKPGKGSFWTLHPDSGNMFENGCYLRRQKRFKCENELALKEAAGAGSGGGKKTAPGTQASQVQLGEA
MEASUREMENT_DESCRIPTION: competition EMSA
REPORTED_CONDITIONS: 25 mM HEPES pH 7.6, 150 mM KCl, 0.2 mM EDTA, 0.2 mM EGTA, 10% glycerol, 1 mM DTT, 3 ug protein, 1 ng 32P-TTR probe, 2/5/20 ng competitor, on ice 15 min; 4% …
// assign Met if binding signal (EMSA score (TTR=1)) falls strictly below 0.2, else Not met (ties count as Not met)

CAGTGCAACAAGTTGTTTACACTCTTCATT (double strand) [FoxA BS chr6:34792983 a]; Not met
CAGTCTCTGCCCCTCTATTGGTCTAGCTCTCCAA (double strand) [non-site chr16:22806861]; Met
CAGTCCCTATCTGTGTTTACAGCTGGTTTC (double strand) [non-site chr5:139643316]; Met
CAGTCTCTGAGTGACTGTTTTCTGTAATACCCAA (double strand) [non-site chr15:91019750]; Met
CAGTCTTGAGGCCTGTTTACCGTCCAGTTA (double strand) [FoxA BS chr19:44039737]; Not met

Enquiry: Determine whether this sequence shows binding signal (EMSA score (TTR=1)) lower than 0.2 (ties excluded): CAGTCAGTGGAAGGCTGTTAACTGTGCCTGCTGC (double strand) [non-site chr13:40870570]
Return: Met

Enquiry: # repeat for CAGTCTGCGGCGCCAGATTTACACAGCGCGAGGA (double strand) [FoxA BS chr7:15773405]
Return: Not met

Enquiry: # repeat for CAGTCAGCTCCCATGTTTACCAGGCCTTGA (double strand) [FoxA BS chr6:121311851]
Return: Not met

Enquiry: # repeat for CAGTTCATGCCACAGTTTACTCTGGTCCCT (double strand) [non-site chr1:154160175]
Return: Not met

Enquiry: # repeat for CAGTATTTATTTGTATGTATTTTGAGACAG (double strand) [FoxA BS chr3:116606401]
Return: Not met

Enquiry: # repeat for CAGTGTGAGTGTGTGTGTGTATACAGCGTGAGTC (double strand) [FoxA BS chr15:59478046]
Return: Not met

Enquiry: # repeat for CAGTAGCGCCTGCAGTTTACCTTGGCTCCG (double strand) [non-site chr9:102865800]
Return: Met

Enquiry: # repeat for CAGTCTCCTCCATTGTGTACACTCCCCCTC (double strand) [FoxA BS chr7:44717527]
Return: Not met

Enquiry: # repeat for CAGTTGCGCCCCGGGTGTTGGCAGCGAGAAGTGG (double strand) [non-site chr12:77880754 b]
Return: Met

Enquiry: # repeat for CAGTCCTTGTGCTTATTTACATACCCCGCC (double strand) [FoxA BS chr19:12527263]
Return: Not met

Enquiry: # repeat for CAGTTTGGGTCAATATTTATTCTTTCATTT (double strand) [FoxA BS chr19:38189585]
Return: Not met
